target: recombinant human ROCK2 (amino acids 1-530, aminoterminal 6×His tag) (Homo sapiens); construct: recombinant human ROCK2 (amino acids 1-530, aminoterminal 6×His tag); 6xHis (N); assay: Determination of ROCK kinase activity, IMAP assay, ROCK2 human; conditions: in vitro kinase assay, ATP 34.8 μM
Sequence (O75116 1-530): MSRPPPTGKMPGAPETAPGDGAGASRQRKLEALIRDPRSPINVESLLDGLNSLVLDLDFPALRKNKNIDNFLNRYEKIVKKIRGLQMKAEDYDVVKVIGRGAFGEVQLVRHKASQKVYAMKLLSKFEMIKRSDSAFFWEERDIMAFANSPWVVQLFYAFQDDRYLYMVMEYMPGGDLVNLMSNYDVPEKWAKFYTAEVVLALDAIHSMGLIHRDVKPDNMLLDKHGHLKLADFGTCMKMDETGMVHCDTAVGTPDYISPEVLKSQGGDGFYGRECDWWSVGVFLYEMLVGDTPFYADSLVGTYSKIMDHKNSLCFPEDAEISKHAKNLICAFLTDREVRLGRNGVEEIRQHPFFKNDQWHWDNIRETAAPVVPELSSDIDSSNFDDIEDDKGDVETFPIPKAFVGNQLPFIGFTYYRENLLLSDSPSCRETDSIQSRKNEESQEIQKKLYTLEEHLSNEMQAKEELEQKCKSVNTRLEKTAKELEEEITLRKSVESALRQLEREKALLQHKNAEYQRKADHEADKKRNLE
pIC50: −log10 of the molar value.
readout kind: pIC50

• C[C@@H](NC(=O)c1ccc2cnccc2n1)c1ccccc1 = 6.04
• COc1ccc(C(C)NC(=O)c2ccc3cnccc3n2)cc1 (stereo not drawn) = 4.97
• NC(=O)[C@H](Cc1ccccc1)NC(=O)c1ccc2cnccc2n1 = 5.25
• COc1ccc(CNC(=O)c2ccc3cnccc3n2)cc1 = 5.29
• O=C(NCc1ccccc1Br)c1ccc2cnccc2n1 = 5.14
• CC(NC(=O)c1ccc2cnccc2n1)c1ccc(Br)cc1 (stereo not drawn) = 6.05
• O=C(NCc1cccs1)c1ccc2cnccc2n1 = 5.11
• Cc1ccc(C(C)NC(=O)c2ccc3cnccc3n2)cc1 (stereo not drawn) = 5.85
• C[C@@H](NC(=O)c1ccc2cnccc2n1)c1ccc(Cl)cc1 = 6.44
• O=C(NCc1ccc(Cl)cc1)c1ccc2cnccc2n1 = 5.68
• O=C(NCc1ccc2c(c1)OCO2)c1ccc2cnccc2n1 = 5.73
• O=C(NCCc1ccc(Cl)cc1)c1ccc2cnccc2n1 = 5.24

* * *

target: recombinant human ROCK1 (amino acids 1-555, aminoterminal 6×His tag) (Homo sapiens, UniProt Q13464); construct: recombinant human ROCK1 (amino acids 1-555, aminoterminal 6×His tag); 6xHis (N); test: Determination of ROCK kinase activity, IMAP assay, ROCK1 human; conditions: in vitro kinase assay, ATP 38.9 μM
Sequence (Q13464 1-555): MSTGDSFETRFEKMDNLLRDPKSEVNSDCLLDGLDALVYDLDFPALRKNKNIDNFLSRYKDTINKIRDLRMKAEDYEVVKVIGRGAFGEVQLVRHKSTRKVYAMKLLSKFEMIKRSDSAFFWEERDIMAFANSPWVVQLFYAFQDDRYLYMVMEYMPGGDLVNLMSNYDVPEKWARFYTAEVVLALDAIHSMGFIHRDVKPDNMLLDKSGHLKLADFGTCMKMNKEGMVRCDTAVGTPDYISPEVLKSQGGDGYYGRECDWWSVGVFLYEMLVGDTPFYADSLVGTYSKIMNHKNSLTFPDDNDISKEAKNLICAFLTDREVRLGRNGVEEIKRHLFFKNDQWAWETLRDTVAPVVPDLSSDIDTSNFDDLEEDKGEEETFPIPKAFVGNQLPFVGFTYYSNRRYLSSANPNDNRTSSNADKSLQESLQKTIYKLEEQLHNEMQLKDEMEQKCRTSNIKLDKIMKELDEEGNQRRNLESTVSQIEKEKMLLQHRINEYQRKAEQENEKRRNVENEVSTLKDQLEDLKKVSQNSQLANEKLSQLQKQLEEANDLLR
pIC50: −log10 of the molar value.
Classification field: t = pIC50 at or over 6; f = pIC50 under 6.

* CCC(NC(=O)c1ccc2cnccc2n1)c1cccc(Cl)c1 (stereo not shown) | t
* O=C(NCc1cccc(Cl)c1)c1ccc2cnccc2n1 | t
* O=C(NCc1ccccc1Br)c1ccc2cnccc2n1 | f
* COc1ccc(CNC(=O)c2ccc3cnccc3n2)cc1 | f
* NC(=O)[C@H](Cc1ccc(O)cc1)NC(=O)c1ccc2cnccc2n1 | f
* NC(=O)[C@H](Cc1ccccc1)NC(=O)c1ccc2cnccc2n1 | f
* O=C(NCc1ccc(Cl)cc1)c1ccc2cnccc2n1 | f
* C[C@@H](NC(=O)c1ccc2cnccc2n1)c1ccc2ccccc2c1 | f
* O=C(NCc1ccccc1Cl)c1ccc2cnccc2n1 | f
* O=C(NCc1cccs1)c1ccc2cnccc2n1 | f
* O=C(NCCc1ccc(Cl)cc1)c1ccc2cnccc2n1 | f
* COc1cccc(CNC(=O)c2ccc3cnccc3n2)c1 | f
* O=C(NCc1ccccc1)c1ccc2cnccc2n1 | f

* * *

biological target: recombinant human ROCK2 (amino acids 1-530, aminoterminal 6×His tag) (Homo sapiens); construct: recombinant human ROCK2 (amino acids 1-530, aminoterminal 6×His tag); 6xHis (N); assay: Determination of ROCK kinase activity, IMAP assay, ROCK2 human; settings: in vitro kinase assay, ATP 34.8 μM
Labelling: IC50 reported below 2000 nM becomes yes (1); at or above becomes no (0).

* Cc1ccc([C@@H](C)NC(=O)c2ccc3cnccc3n2)cc1 | yes (1)
* COc1cccc(CNC(=O)c2ccc3cnccc3n2)c1 | no (0)
* CCC(NC(=O)c1ccc2cnccc2n1)c1ccccc1 (centres unmarked) | yes (1)
* CCC(NC(=O)c1ccc2cnccc2n1)c1cccc(Cl)c1 (centres unmarked) | yes (1)
* CC(NC(=O)c1ccc2cnccc2n1)c1ccsc1 (centres unmarked) | yes (1)
* CC(NC(=O)c1ccc2cnccc2n1)c1ccccc1 (centres unmarked) | yes (1)
* NC(=O)[C@H](Cc1ccc(O)cc1)NC(=O)c1ccc2cnccc2n1 | no (0)
* O=C(NCc1ccccc1)c1ccc2cnccc2n1 | no (0)
* O=C(NCc1cccc(Br)c1)c1ccc2cnccc2n1 | yes (1)
* CCC(NC(=O)c1ccc2cnccc2n1)c1cccs1 (centres unmarked) | yes (1)
* CC[C@@H](NC(=O)c1ccc2cnccc2n1)c1ccccc1 | yes (1)

* * *

Entries and their measured pIC50 follow.
biological target: recombinant human ROCK1 (amino acids 1-555, aminoterminal 6×His tag) (Homo sapiens, UniProt Q13464); construct: recombinant human ROCK1 (amino acids 1-555, aminoterminal 6×His tag); 6xHis (N); test: Determination of ROCK kinase activity, IMAP assay, ROCK1 human; details: in vitro kinase assay, ATP 38.9 μM
pIC50: −log10 of the molar value.
readout kind: pIC50

• O=C(NCCc1ccc(Br)cc1)c1ccc2cnccc2n1 = 5.82
• CCC(NC(=O)c1ccc2cnccc2n1)c1ccc(C)cc1 (stereo not drawn) = 6.10
• O=C(NCc1cccc(Br)c1)c1ccc2cnccc2n1 = 6.04
• Cc1ccc(CNC(=O)c2ccc3cnccc3n2)cc1 = 5.89
• Cc1ccc(C(C)NC(=O)c2ccc3cnccc3n2)cc1 (stereo not drawn) = 5.89
• C[C@@H](NC(=O)c1ccc2cnccc2n1)c1ccccc1 = 5.95
• CC(NC(=O)c1ccc2cnccc2n1)c1ccc(Br)cc1 (stereo not drawn) = 6.01
• CC(NC(=O)c1ccc2cnccc2n1)c1ccccc1 (stereo not drawn) = 6.15
• O=C(NCc1ccccc1F)c1ccc2cnccc2n1 = 6.10
• O=C(NCc1ccc(Br)cc1)c1ccc2cnccc2n1 = 5.86
• CCC(NC(=O)c1ccc2cnccc2n1)c1ccccc1 (stereo not drawn) = 6.18
• CC(NC(=O)c1ccc2cnccc2n1)c1ccc(Cl)cc1 (stereo not drawn) = 5.96
• CC(NC(=O)c1ccc2cnccc2n1)c1ccc(F)cc1 (stereo not drawn) = 6.03
• O=C(NCc1ccc2c(c1)OCO2)c1ccc2cnccc2n1 = 5.84
• CCC(NC(=O)c1ccc2cnccc2n1)c1ccc(Cl)cc1 (stereo not drawn) = 5.90
